Test system: A498 renal
Experiment: NCI tumour cell line growth inhibition, 48 h
Where a SMILES comes first, the peptide text is derived from it. [ ]: non-standard residue; d: D form. 2Nal = N[CH](Cc1ccc2ccccc2c1)C(=O)O
Catalogue of GI50 readings, one per entry.

COMPOUND: O=C(NNC(=S)Nc1ccccc1)c1ccccn1
TARGET_OF_ASSAY: A498 renal
GI50: 4.55 µM

COMPOUND: CC(C)C(NC(=O)C(CCCCN)NC(=O)C(Cc1c[nH]c2ccccc12)NC(=O)C(Cc1ccc(O)cc1)NC(=O)C(CS)NC(=O)C(N)Cc1ccc2ccccc2c1)C(=O)NC(CS)C(=O)NC(C(N)=O)C(C)O (centres undefined) (H-[2Nal]CYWKVCT-NH2; configuration not given here)
TARGET_OF_ASSAY: A498 renal
GI50: > 100 µM

COMPOUND: CCOC(=O)c1csc(NC(=O)COc2cccc(/C=C3\CSc4ccccc4C3=O)c2)n1
TARGET_OF_ASSAY: A498 renal
GI50: 12.1 µM

COMPOUND: O=S(=O)(Nc1ccc2ccccc2c1)c1ccc(-c2cnc(C3CC3)o2)cc1
TARGET_OF_ASSAY: A498 renal
GI50: 0.462 µM
